# test_target: influenza A virus (IAV) PA-Nter fragment (amino acids 1-209) (Influenza A virus)
Mark each entry Fulfilled if its IC50 sits below 3 µM, and Not fulfilled for all others.

>>> class_label("COc1ccc(CCn2cc(C(=O)O)c(=O)n3nc(C4CC4)cc23)cc1 [drawing 228]")
"Not fulfilled"
>>> class_label("O=C(O)c1cn(Cc2ccccc2-c2ccccc2)c2sc(NC3CC3)nc2c1=O")
"Fulfilled"
>>> class_label("O=C(O)c1c[nH]c2ccnn2c1=O")
"Not fulfilled"
>>> class_label("O=c1cc[nH]c2nc(NS(=O)(=O)Cc3ccccc3)nn12")
"Not fulfilled"
>>> class_label("O=C(O)c1cn(Cc2ccccc2-c2ccccc2)c2sc(NCc3ccccc3)nc2c1=O")
"Not fulfilled"
>>> class_label("O=C(O)c1cn(Cc2ccc(Cl)cc2-c2ccccc2)c2sc(O)nc2c1=O")
"Fulfilled"
>>> class_label("COc1ccc(S(=O)(=O)Nc2nc3c(=O)c(C(=O)O)cn(Cc4ccccc4-c4ccc(Cl)cc4)c3s2)cc1")
"Not fulfilled"
>>> class_label("CCOC(=O)c1cn(Cc2ccccc2-c2ccccc2)c2sc(NCc3c(Cl)cccc3Cl)nc2c1=O")
"Not fulfilled"
>>> class_label("O=C(O)c1cn(Cc2ccccc2-c2ccccc2)c2sc(NS(=O)(=O)c3ccc(Cl)cc3F)nc2c1=O")
"Not fulfilled"
>>> class_label("CC(C)Nc1nc2c(=O)c(C(=O)O)cn(Cc3ccccc3-c3ccccc3)c2s1")
"Not fulfilled"
>>> class_label("COc1ccc(CNc2nc3c(=O)c(C(=O)O)cn(Cc4ccc(Cl)cc4-c4ccccc4)c3s2)cc1")
"Not fulfilled"
>>> class_label("O=C(O)c1cn(C(c2ccccc2)c2ccccc2)c2sc(O)nc2c1=O")
"Fulfilled"
>>> class_label("O=C(O)c1cn(Cc2ccccc2-c2ccccc2)c2sc(NCc3ccc(Cl)cc3)nc2c1=O")
"Fulfilled"
>>> class_label("N#Cc1ccc(S(=O)(=O)Nc2nc3c(=O)c(C(=O)O)cn(Cc4ccccc4-c4ccccc4)c3s2)cc1")
"Fulfilled"
>>> class_label("CNc1nc2c(=O)c(C(=O)O)cn(Cc3ccccc3-c3ccccc3)c2s1")
"Fulfilled"
>>> class_label("O=C(O)c1cn(CCc2cccc(F)c2)c2cc(C3CC3)nn2c1=O [drawing 226]")
"Not fulfilled"
>>> class_label("Nc1cc2n(S(=O)(=O)c3ccccc3)cc(C(=O)O)c(=O)n2n1")
"Not fulfilled"
>>> class_label("Nc1nc2c(=O)c(C(=O)O)cn(Cc3ccccc3-c3ccccc3)c2s1")
"Fulfilled"
>>> class_label("O=C(O)c1cn(Cc2ccccc2-c2ccccc2)c2sc(NS(=O)(=O)c3cccc(F)c3)nc2c1=O")
"Not fulfilled"
>>> class_label("O=CNc1nc2c(=O)c(C(=O)O)cn(Cc3ccccc3-c3ccccc3)c2s1")
"Not fulfilled"

* * *

property_label: melting point

>>> result_value("CCOC(=O)c1cn(CCc2ccccc2)c2cc(C(C)C)nn2c1=O")
"130 to 135 °C"
>>> result_value("O=C(O)c1c[nH]c2cc(C3CC3)nn2c1=O")
"275 to 278 °C"
>>> result_value("O=C(O)c1cn(CCc2ccc(O)cc2)c2cc(C3CC3)nn2c1=O")
"265 to 270 °C"
>>> result_value("CCOC(=O)c1c[nH]c2nc(NCc3cccc4ccccc34)nn2c1=O")
"273 to 275 °C"
>>> result_value("O=C(O)c1cn(CCc2ccccc2)c2cc(C3CCCC3)nn2c1=O")
"198 to 200 °C"
>>> result_value("O=C(O)Cc1c[nH]c2nc(Nc3ccccc3)nn2c1=O")
"279 to 281 °C"
>>> result_value("CCOC(=O)Cc1c[nH]c2cc(C(F)(F)F)nn2c1=O")
"290 to 293 °C"
>>> result_value("O=C(O)c1cn(Cc2ccccc2)c2cc(C3CCCC3)nn2c1=O")
"213 to 215 °C"
>>> result_value("CCOC(=O)c1cn(CCc2ccc(O)cc2)c2cc(C3CC3)nn2c1=O")
"95 to 100 °C"
>>> result_value("CCOC(=O)Cc1c[nH]c2cc(C3CC3)nn2c1=O")
"280 to 283 °C"
>>> result_value("O=C(O)c1cn(CCc2cccc(F)c2)c2cc(C3CC3)nn2c1=O")
"220 to 225 °C"
